System: human peripheral blood mononuclear cells (PBMC)
Assay: IL-6 secretion by human PBMC (ELISA)
Format: cell-based
Conditions: 5 μg/ml, 24 h
Kindly supply the reported IL6 values for the records listed here.

Look up IL6 with human peripheral blood mononuclear cells (PBMC) for this compound: CCCCCCCCCCCC(=O)O[C@H](CCCCCCCCCCC)CC(=O)NC1C(OCC2OC(OP(=O)(O)O)C(NC(=O)C[C@H](O)CCCCCCCCCCC)C(O)C2O)OC(CO)C(OP(=O)(O)O)C1O (stereo partly drawn) [compound 1b] 57.1 pg/mL

# value lookup — system human peripheral blood mononuclear cells (PBMC), readout IL6, item CCCCCCCCCCCC(=O)O[C@H](CCCCCCCCCCC)CC(=O)N[C@H]1[C@H](OC[C@H]2O[C@H](OCCC)[C@H](NC(=O)C[C@H](O)CCCCCCCCCCC)[C@@H](O)[C@@H]2O)O[C@H](CO)[C@@H](OP(=O)(O)O)[C@@H]1O [compound 17] 447.6 pg/mL

Requested read-out IL6, target or system human peripheral blood mononuclear cells (PBMC), entry CCCCCCCCCCCC(=O)O[C@H](CCCCCCCCCCC)CC(=O)NC1C(OCC2OC(OCCCCCCN)C(NC(=O)C[C@H](O)CCCCCCCCCCC)C(O)C2O)OC(CO)C(OP(=O)(O)O)C1O (stereo partly drawn) [compound 26] 1923.2 pg/mL

---

Molecular target: TLR2 and CD14 (Homo sapiens)
Construct: expressed in transfected cells; host or cells: HEK (HEK-TLR2-CD14 cell line)
Sequence (O60603 21-784): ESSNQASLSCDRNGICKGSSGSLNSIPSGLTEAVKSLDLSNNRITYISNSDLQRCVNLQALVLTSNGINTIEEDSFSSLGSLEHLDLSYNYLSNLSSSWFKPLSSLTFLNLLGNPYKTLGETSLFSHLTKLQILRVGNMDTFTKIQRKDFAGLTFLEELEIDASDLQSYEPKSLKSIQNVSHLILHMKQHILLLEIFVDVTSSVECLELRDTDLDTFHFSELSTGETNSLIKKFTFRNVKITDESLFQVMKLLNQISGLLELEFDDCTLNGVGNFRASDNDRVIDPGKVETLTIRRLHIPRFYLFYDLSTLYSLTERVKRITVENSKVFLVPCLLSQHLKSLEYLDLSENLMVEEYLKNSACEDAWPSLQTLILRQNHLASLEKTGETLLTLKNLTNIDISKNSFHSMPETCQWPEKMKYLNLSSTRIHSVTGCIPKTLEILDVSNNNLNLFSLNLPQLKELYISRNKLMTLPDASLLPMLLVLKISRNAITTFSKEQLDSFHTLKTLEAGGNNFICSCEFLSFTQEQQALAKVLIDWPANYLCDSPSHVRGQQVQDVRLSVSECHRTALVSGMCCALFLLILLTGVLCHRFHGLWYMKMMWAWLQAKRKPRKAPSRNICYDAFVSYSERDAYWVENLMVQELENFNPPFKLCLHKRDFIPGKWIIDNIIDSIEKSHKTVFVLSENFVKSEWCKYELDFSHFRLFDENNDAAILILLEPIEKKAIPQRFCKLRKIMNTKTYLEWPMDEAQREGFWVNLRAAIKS
Test: HEK-TLR2-CD14 IL-8 secretion
Format: cell-based
Conditions: 3333 ng/ml, 24 h
Please provide measured IL-8 secretion, mean for the entries that follow.
Note: unit pg/mL is implicit; provide only the numeric part.

Endpoint output: IL-8 secretion, mean of CCCCCCCCCCCC(=O)O[C@H](CCCCCCCCCCC)CC(=O)N[C@H]1[C@H](OC[C@H]2O[C@H](O)[C@H](NC(=O)C[C@H](O)CCCCCCCCCCC)[C@@H](O)[C@@H]2O)O[C@H](CO)[C@@H](OP(=O)(O)O)[C@@H]1O [compound 16] . Value? 0.13

Field request: IL-8 secretion, mean | item: CCCCCCCCCCCC(=O)O[C@H](CCCCCCCCCCC)CC(=O)N[C@H]1[C@H](OC[C@H]2O[C@H](OCCC)[C@H](NC(=O)C[C@H](O)CCCCCCCCCCC)[C@@H](O)[C@@H]2O)O[C@H](CO)[C@@H](OP(=O)(O)O)[C@@H]1O [compound 17] 1.06

Which IL-8 secretion, mean reading was recorded for the molecule CCCCCCCCCCCC(=O)O[C@H](CCCCCCCCCCC)CC(=O)N[C@H]1[C@H](OC[C@H]2O[C@H](OCCOP(=O)(O)O)[C@H](NC(=O)C[C@H](O)CCCCCCCCCCC)[C@@H](O)[C@@H]2O)O[C@H](CO)[C@@H](OP(=O)(O)O)[C@@H]1O [compound 33] ? 1.49

Look at this molecule and give its reported IL-8 secretion, mean. CCCCCCCCCCCC(=O)O[C@H](CCCCCCCCCCC)CC(=O)N[C@H]1[C@H](OC[C@H]2O[C@H](OCC(O)CO)[C@H](NC(=O)C[C@H](O)CCCCCCCCCCC)[C@@H](O)[C@@H]2O)O[C@H](CO)[C@@H](OP(=O)(O)O)[C@@H]1O (stereo partly shown) [compound 19] 0.26
